- assay_target: PDE4B1 (Homo sapiens)
- Construct: made in house; host or cells: SF21 insect cells (baculovirus; pCRBac vector), 1000 x g supernatant of homogenate
- Sequence (Q07343 whole entry): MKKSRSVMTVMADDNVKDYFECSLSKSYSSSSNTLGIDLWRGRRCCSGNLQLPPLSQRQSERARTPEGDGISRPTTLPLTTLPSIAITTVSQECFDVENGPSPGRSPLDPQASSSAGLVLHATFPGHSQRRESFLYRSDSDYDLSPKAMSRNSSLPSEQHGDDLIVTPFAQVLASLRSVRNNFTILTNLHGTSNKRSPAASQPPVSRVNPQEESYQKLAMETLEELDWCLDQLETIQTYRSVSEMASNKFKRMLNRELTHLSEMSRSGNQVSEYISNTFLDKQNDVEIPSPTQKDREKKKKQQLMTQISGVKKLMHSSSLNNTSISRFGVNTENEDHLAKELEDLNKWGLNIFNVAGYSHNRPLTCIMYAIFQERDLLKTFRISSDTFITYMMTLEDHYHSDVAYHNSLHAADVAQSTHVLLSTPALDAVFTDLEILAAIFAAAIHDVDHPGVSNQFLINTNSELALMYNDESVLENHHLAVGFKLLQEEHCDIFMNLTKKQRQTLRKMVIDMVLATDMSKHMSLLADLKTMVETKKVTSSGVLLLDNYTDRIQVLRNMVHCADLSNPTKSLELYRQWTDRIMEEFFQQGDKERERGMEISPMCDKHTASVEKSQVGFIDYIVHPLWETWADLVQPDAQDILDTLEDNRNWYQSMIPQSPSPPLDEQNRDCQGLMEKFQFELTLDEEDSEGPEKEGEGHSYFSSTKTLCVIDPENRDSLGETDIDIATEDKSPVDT
- test_details: Inhibition of type 4 phosphodiesterase (PDE4) activity, modified SPA test with recombinant PDE4B1 expressed in SF21 insect cells
- Format: biochemical
- run_conditions: recombinant PDE4B1, 0.5 μM cAMP, read-out: PDE4B1 inhibitory values [measured as −log IC50 (mol/l)] (converted)
Recorded measurements of IC50, one per entry

Answered examples (5):
>  <compound_string>
CCc1ccc(OCC2CC2)c(-c2ncnc3c(C(=O)N[C@H]4CC[C@H](NC(=O)[C@H](C)O)CC4)c(C)[nH]c23)c1

>  <IC50>
< 100 nM

$$$$
>  <compound_string>
CC(=O)N[C@H]1CC[C@H](NC(=O)c2c(C)[nH]c3c(-c4cc(C(C)C)ccc4OCC4CC4)ncnc23)CC1

>  <IC50>
100 to 1000 nM

$$$$
>  <compound_string>
COc1ccc(OCC2CC2)c(-c2ncnc3c(C(=O)N[C@H]4CC[C@@H](NC(C)=O)CC4)c(C)[nH]c23)c1

>  <IC50>
100 to 1000 nM

$$$$
>  <compound_string>
CC(=O)N1CCC(NC(=O)c2c(C)[nH]c3c(-c4cc(C(F)(F)F)ccc4OCC4CC4)ncnc23)CC1

>  <IC50>
< 100 nM

$$$$
>  <compound_string>
Cc1[nH]c2c(-c3cc(C(F)(F)F)ccc3OCC3CC3)ncnc2c1C(=O)N[C@H]1CC[C@@H](NC(=O)CO)CC1

>  <IC50>
< 100 nM

$$$$

Identify IC50 associated with the molecule `COCC(=O)N[C@H]1CC[C@@H](NC(=O)c2c(C)[nH]c3c(-c4cc(OC)ccc4OCC4CC4)ncnc23)CC1` 100 to 1000 nM

Identify IC50 associated with the molecule `CC(=O)N[C@H]1CC[C@H](NC(=O)c2c(C)[nH]c3c(-c4cc(C(F)(F)F)ccc4OCC4CC4)ncnc23)CC1` < 100 nM

Identify IC50 associated with the molecule `CCC(=O)N[C@H]1CC[C@H](NC(=O)c2c(C)[nH]c3c(-c4cc(C(F)F)ccc4OCC4CC4)ncnc23)C1` < 100 nM
